Tested on: ORYSAT Rice, Tebonnet
Assay: Postemergence herbicidal evaluation, ORYSAT
Format: in vivo, Oryza sativa, (L.)
Design: scale not given here
Details: 0.062 kg/ha, postemergence spray, rated about two-three weeks after treatment
Readings of Postemergence herbicidal rating ORYSAT for the listed molecules

molecule | Postemergence herbicidal rating ORYSAT
Cc1ccc(-n2nnc3cc(F)c(-n4c(=O)cc(C(F)(F)F)n(C)c4=O)cc32)cc1 [Example 19] | 4.0
Cc1ccc(-n2nnc3cc(F)c(-n4c(=O)cc(C(F)(F)F)n(C)c4=O)cc32)cc1C [Example 23] | 4.0
C#CCOC(=O)COc1ccc(C)c(-n2nnc3cc(F)c(-n4c(=O)cc(C(F)(F)F)n(C)c4=O)cc32)c1 [Example 36] | 4.0
COC(=O)C(C)Oc1ccc(C)cc1-n1nnc2cc(F)c(-n3c(=O)cc(C(F)(F)F)n(C)c3=O)cc21 (stereo not shown) [Example 41] | 8.0
